Molecular target: Staphylococcus aureus MurA (Staphylococcus aureus)
Construct: made in house; host or cells: E. coli
Sequence (Q931H5 whole entry): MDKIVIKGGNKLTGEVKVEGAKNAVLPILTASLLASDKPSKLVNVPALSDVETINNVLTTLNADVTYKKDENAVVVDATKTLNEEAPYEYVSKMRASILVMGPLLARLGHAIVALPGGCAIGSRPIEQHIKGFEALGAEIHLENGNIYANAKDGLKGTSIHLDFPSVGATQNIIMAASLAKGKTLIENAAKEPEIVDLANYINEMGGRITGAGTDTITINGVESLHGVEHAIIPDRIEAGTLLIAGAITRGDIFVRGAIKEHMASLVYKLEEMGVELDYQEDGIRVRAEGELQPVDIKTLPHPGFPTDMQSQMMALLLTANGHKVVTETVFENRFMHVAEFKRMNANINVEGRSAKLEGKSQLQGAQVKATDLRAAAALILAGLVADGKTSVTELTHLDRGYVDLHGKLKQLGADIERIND
Experiment: biochemical
Details: IC50 Staphylococcus aureus MurA, time of preincubation: 10 min
experimental endpoint: pIC50
Scale for pIC50: -log10 of concentration given in mol/L; no unit attached.

Query: State its pIC50 for this molecule: COC(=O)[C@]12CCCC(C)(C)[C@@H]1CCc1cc(C(C)C)c(O)c(O)c12 [Compound 4, 20-methyl carnosate]
Result: 5.47

Others:
Query: State its pIC50 for this molecule: CC(C)c1cc2c(cc1O)[C@@]1(C)CCC[C@@](C)(C(=O)O)[C@@H]1CC2 [Compound 9, 12-hydroxy-dehydroabietic acid]
Result: 4.26
